# Tested on: Ramos cells with BTK WT
# test protocol: Phosphor-BTK(Y223) assay, suspended cells
# Assay type: cell-based
# run parameters: Homo sapiens, Ramos, phosphorylated BTK Y223, Ramos cells with BTK WT
metric name: IC50

# input For the compound COc1ccc(F)cc1C(=O)NCc1ccc(-c2ncc(-c3ccc(C(=O)N4C[C@@H](C)O[C@H](C)C4)cn3)c3[nH]nc(N)c23)cc1 [Example 54] , what IC50 is on record?
# output ≤ 5 nM

# input For the compound COc1ccc(F)cc1C(=O)NCc1ccc(-c2ncc(-c3ccnc4ccnn34)c3[nH]nc(N)c23)cc1 [Example 111] , what IC50 is on record?
# output > 50 nM

# input For the compound COc1ccc(F)cc1C(=O)NCc1ccc(-c2ncc(-c3ccn(CC(F)(F)F)n3)c3[nH]nc(N)c23)cc1 [Example 28] , what IC50 is on record?
# output 10 to 50 nM

# input For the compound COc1ccc(F)cc1C(=O)NCc1ccc(-c2ncc(-c3ccccn3)c3[nH]nc(N)c23)cc1 [Example 15] , what IC50 is on record?
# output 5 to 10 nM

# input For the compound COc1ccc(F)cc1C(=O)NCc1ccc(-c2nc(C(C)C(F)(F)F)c(-c3ncccn3)c3[nH]nc(N)c23)cc1 (single isomer, unassigned) [Example 7-1] , what IC50 is on record?
# output ≤ 5 nM

# input For the compound COc1ccc(F)cc1C(=O)NCc1ccc(-c2ncc(-c3ccc(N4CCOCC4)cn3)c3[nH]nc(N)c23)cc1 [Example 76] , what IC50 is on record?
# output ≤ 5 nM

# input For the compound COc1ccc(F)cc1C(=O)NCc1ccc(-c2ncc(-c3ccncn3)c3[nH]nc(N)c23)cc1 [Example 19] , what IC50 is on record?
# output 5 to 10 nM

# input For the compound COc1ccc(F)cc1C(=O)NCc1ccc(-c2nc(C(C)C(F)(F)F)c(-c3cnccn3)c3[nH]nc(N)c23)cc1 (stereo not drawn) [Example 8] , what IC50 is on record?
# output > 50 nM

# input For the compound COc1ccc(F)cc1C(=O)NCc1ccc(-c2ncc(-c3ccc(C(F)(F)F)cn3)c3[nH]nc(N)c23)cc1 [Example 24] , what IC50 is on record?
# output ≤ 5 nM
